Task for the reader: assign each of the following molecules its reported IC50.
# Assayed system: UniProt:P10275
# Measurement protocol: Inhibition of androgen receptor in human LNCaP cells assessed as inhibition of AR transcription activity by dual-luciferase reporter assays
# Assay type: cell-based

*Q* Which value of IC50 has been reported for `Cc1c(O)c(O)c(C=O)c(COCc2ccccc2)c1-c1ccc(C(F)(F)F)cc1Br` in the records?
*A* 4.08 µM

*Q* Endpoint output: IC50 of `Cc1c(O)c(O)c(C=O)c(COCc2ccccc2)c1-c1ccc(C(F)(F)F)cc1Cl` . Value?
*A* 3.25 µM

*Q* What value of IC50 has been recorded for this entry: `Cc1c(O)c(O)c(C=O)c(COCc2ccccc2)c1-c1ccc(C(C)(C)C)cc1`
*A* 3.51 µM

*Q* // returns reported IC50 for input `C#CCOCc1c(C=O)c(O)c(O)c(C)c1-c1ccccc1`
*A* > 5 µM

*Q* // IC50 lookup, key: `COc1cccc(COCc2c(C=O)c(O)c(O)c(C)c2-c2ccccc2)c1`
*A* > 5 µM

*Q* So what does the record say about IC50 for `C=C(C)Cc1c(C)c(O)c(O)c(C=O)c1COCc1ccccc1` ?
*A* > 5 µM

*Q* Consider the molecule shown here: `Cc1cc(CO[C@H]2CC[C@@]3(C)C(=CC[C@@H]4[C@@H]3CC[C@]3(C)C(=O)CC[C@@H]43)C2)c(C=O)c(O)c1O` What is its recorded IC50?
*A* > 5 µM

*Q* Fill in the blank: the reported IC50 of `Cc1c(O)c(O)c(C=O)c(COCc2ccccc2)c1-c1cc(F)ccc1F` is ____.
*A* > 5 µM

*Q* Fill blank: measured IC50 of the molecule `Cc1c(O)c(O)c(C=O)c(COCc2ccccc2)c1-c1ccccc1` is ____.
*A* > 5 µM

*Q* Entry under review: `CCc1c(O)c(O)c(C=O)c(COCc2ccccc2)c1-c1ccccc1` . Reported IC50?
*A* > 5 µM

*Q* Look up IC50 for this molecule: `Cc1c(O)c(O)c(C=O)c2c1C1(CC2)c2ccccc2-c2ccccc21`
*A* > 5 µM

*Q* # input molecule: `Cc1c(O)c(O)c(C=O)c(COCc2ccccc2)c1-c1ccc(Br)cc1F` ; wanted: its IC50
*A* 3.39 µM

*Q* Which IC50 value is on record for `Cc1c(O)c(O)c(C=O)c(COCc2ccccc2F)c1-c1ccccc1` ?
*A* > 5 µM

*Q* Name the reported IC50 value associated with the molecule `Cc1c(O)c(O)c(C=O)c(COCc2ccccc2)c1-c1ccc(F)cc1Cl`
*A* > 5 µM

*Q* Suppose we examine the molecule `Cc1cc(COCc2ccccc2)c(C=O)c(O)c1O` ; what IC50 value has been reported?
*A* > 5 µM

*Q* Please look up its IC50: `Cc1c(O)c(O)c(C=O)c2c1[C@@H](c1ccc(C(=O)O[C@H]3CC[C@@]4(C)C(=CC[C@H]5[C@@H]6CC[C@H]([C@H](C)CCCC(C)C)[C@@]6(C)CC[C@@H]54)C3)cc1)CC2`
*A* > 5 µM

*Q* Using the record for `Cc1c(O)c(O)c(C=O)c(COCc2ccccc2F)c1-c1cccc(F)c1` , report its IC50.
*A* > 5 µM

*Q* Reported IC50, molecule `Cc1c(O)c(O)c(C=O)c(COCc2cccc(F)c2)c1-c1ccc(F)cc1` : ____
*A* 2.58 µM

*Q* Quick check: IC50 of `Cc1c(O)c(O)c(C=O)c(COCc2cccc(C(F)(F)F)c2)c1-c1ccccc1` ?
*A* 3.05 µM

*Q* Field request: IC50 | item: `COc1ccccc1-c1c(C)c(O)c(O)c(C=O)c1COCc1ccccc1`
*A* > 5 µM

*Q* Can you share its IC50? I mean this molecule: `Cc1c(O)c(O)c(C=O)c(CO[C@H]2CC[C@@]3(C)C(=CC[C@@H]4[C@@H]3CC[C@]3(C)C(=O)CC[C@@H]43)C2)c1-c1ccccc1`
*A* 3.22 µM

*Q* Query (molecule): `CC(C)=CCC/C(C)=C/COCc1cc(C)c(O)c(O)c1C=O` ; field requested: IC50
*A* > 5 µM

*Q* Recorded IC50 of `Cc1cccc(COCc2c(C=O)c(O)c(O)c(C)c2-c2ccccc2)c1` , please.
*A* 4.53 µM

*Q* If you can, please state the reported IC50 value of `Cc1c(O)c(O)c(C=O)c(COCc2ccccc2)c1-c1ccccc1Cl` .
*A* > 5 µM

*Q* Entry under review: `Cc1c(O)c(O)c(C=O)c(COCc2ccccc2F)c1-c1ccc(F)cc1` . Reported IC50?
*A* > 5 µM

*Q* Which IC50 is listed for `COc1ccccc1COCc1c(C=O)c(O)c(O)c(C)c1-c1ccccc1` ?
*A* > 5 µM

*Q* Item under review: `Cc1c(O)c(O)c(C=O)c(COCc2ccccc2)c1-c1ccc(F)cc1F` . Reported IC50?
*A* 2.3 µM

*Q* Give its IC50 value. Item: `Cc1cc(C)cc(-c2c(C)c(O)c(O)c(C=O)c2COCc2ccccc2)c1`
*A* > 5 µM

*Q* Which measured IC50 value corresponds to `Cc1c(O)c(O)c(C=O)c(COCc2ccc(C(F)(F)F)cc2)c1-c1ccccc1` ?
*A* 3.32 µM

*Q* Look at this molecule and give its reported IC50. `COc1ccc(-c2c(C)c(O)c(O)c(C=O)c2COCc2ccccc2)cc1`
*A* > 5 µM

*Q* If you can, please state the reported IC50 value of `Cc1ccccc1-c1c(C)c(O)c(O)c(C=O)c1COCc1ccccc1` .
*A* > 5 µM

*Q* Suppose we examine the molecule `Cc1c(O)c(O)c(C=O)c(COCc2ccccc2)c1-c1ccc(Cl)cc1Br` ; what IC50 value has been reported?
*A* > 5 µM

*Q* State the recorded IC50 for this entry: `Cc1c(O)c(O)c(C=O)c(COCc2cccc(F)c2)c1-c1ccc(C(F)(F)F)cc1`
*A* 2.09 µM

*Q* Reported IC50 for `Cc1c(O)c(O)c(C=O)c(COCc2cccc(Cl)c2Cl)c1-c1ccccc1` : what is it?
*A* 2.81 µM

*Q* Form field: reported IC50 of `Cc1c(O)c(O)c(C=O)c(COCc2ccccc2)c1-c1cccc(Br)c1F`
*A* > 5 µM

*Q* Given the entry `Cc1c(O)c(O)c(C=O)c(CSCCC(C)C)c1-c1ccccc1` , report its measured IC50.
*A* > 5 µM

*Q* Given the molecule `Cc1c(O)c(O)c(C=O)c(COCc2ccccc2)c1-c1ccccc1Br` , what is its reported IC50?
*A* > 5 µM

*Q* Any idea what its IC50 is? The molecule is `Cc1c(O)c(O)c(C=O)c(COCc2ccccc2)c1-c1ccc(C(F)(F)F)cc1`
*A* 1.23 µM

*Q* I'd like to know its IC50. The molecule in question is `CCc1cc(COCc2ccccc2)c(C=O)c(O)c1O`
*A* > 5 µM

*Q* Consider the molecule `Cc1ccc(F)cc1-c1c(C)c(O)c(O)c(C=O)c1COCc1ccccc1` and give its measured IC50.
*A* > 5 µM

----------
# Tested on: LNCaP
# Measurement protocol: Antiproliferative activity against human LNCaP cells assessed as cell growth inhibition incubated for 72 hrs by MTT assay
# Type: functional, cell-based
Quantity measured: pIC50
Note on pIC50: it is the negative log10 of concentration, concentration in mol/L.

*Q* What value of pIC50 has been reported for the following molecule? CC1=CC2C(C(C)C)=C(O)C(=O)/C(=C\NCCS(=O)(=O)O)C2C(O)=C1c1c(C)cc2c(c1O)/C(=C/NCCS(=O)(=O)O)C(=O)C(O)=C2C(C)C (stereo unspecified)
*A* 6.46

----------
Task for the reader: assign each of the following compounds its reported pIC50.
# Assayed system: Androgen receptor (Homo sapiens, UniProt P10275)
# Sequence (P10275 whole entry): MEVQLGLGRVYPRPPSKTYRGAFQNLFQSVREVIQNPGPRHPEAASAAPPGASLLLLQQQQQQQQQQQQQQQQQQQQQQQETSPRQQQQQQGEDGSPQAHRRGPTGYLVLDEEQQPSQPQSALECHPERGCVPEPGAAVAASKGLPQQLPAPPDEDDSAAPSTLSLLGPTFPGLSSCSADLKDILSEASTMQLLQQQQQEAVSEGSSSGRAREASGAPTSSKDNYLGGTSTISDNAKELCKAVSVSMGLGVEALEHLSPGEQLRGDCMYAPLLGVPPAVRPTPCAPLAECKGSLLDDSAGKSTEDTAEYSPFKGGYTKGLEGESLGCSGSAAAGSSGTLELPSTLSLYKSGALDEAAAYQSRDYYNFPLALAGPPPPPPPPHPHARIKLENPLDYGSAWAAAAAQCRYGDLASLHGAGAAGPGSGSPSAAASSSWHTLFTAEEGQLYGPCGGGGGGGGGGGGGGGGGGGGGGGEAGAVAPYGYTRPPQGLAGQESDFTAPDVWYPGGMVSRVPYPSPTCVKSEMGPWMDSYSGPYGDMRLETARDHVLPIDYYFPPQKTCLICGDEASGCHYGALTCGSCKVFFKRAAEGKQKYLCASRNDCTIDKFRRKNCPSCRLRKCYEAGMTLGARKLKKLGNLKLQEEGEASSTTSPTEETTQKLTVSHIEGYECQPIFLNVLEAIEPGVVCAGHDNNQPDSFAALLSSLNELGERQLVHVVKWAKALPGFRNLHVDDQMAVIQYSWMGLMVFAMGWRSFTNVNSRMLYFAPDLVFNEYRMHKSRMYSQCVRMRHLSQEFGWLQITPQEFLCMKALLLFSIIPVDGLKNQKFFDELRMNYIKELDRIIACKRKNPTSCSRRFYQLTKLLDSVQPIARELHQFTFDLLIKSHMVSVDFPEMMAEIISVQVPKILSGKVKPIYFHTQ
# Measurement protocol: Inhibition of androgen receptor in human LNCaP cells assessed as inhibition of AR transcription activity by dual-luciferase reporter assays
Keep it numeric: pIC50 is minus log10 of the concentration in mol/L.

*Q* Query: pIC50; subject: `Cc1c(O)c(O)c(C=O)c(COCc2ccc(F)cc2)c1-c1ccc(F)cc1`
*A* 5.62

*Q* Item under review: `Cc1c(O)c(O)c(C=O)c(COCc2ccccc2C(F)(F)F)c1-c1ccccc1` . Reported pIC50?
*A* 5.60

*Q* Data request, read-out pIC50, for `Cc1c(O)c(O)c(C=O)c(COCc2ccccc2)c1-c1ccc(Br)cc1`
*A* 5.46

*Q* pIC50 lookup needed for `Cc1c(O)c(O)c(C=O)c(COCc2ccc(F)cc2)c1-c1ccc(C(F)(F)F)cc1` , thanks.
*A* 5.67

*Q* // lookup pIC50 for `Cc1c(O)c(O)c(C=O)c(COCc2ccc(F)cc2)c1-c1cccc(F)c1`
*A* 5.68

*Q* If you can, please state the reported pIC50 value of `Cc1c(O)c(O)c(C=O)c(COCc2ccccc2)c1-c1ccc(OC(F)(F)F)cc1` .
*A* 5.35

*Q* Look up pIC50 for this compound: `Cc1ccc(-c2c(C)c(O)c(O)c(C=O)c2COCc2ccccc2)cc1`
*A* 5.49

*Q* Need pIC50 of `Cc1c(O)c(O)c(C=O)c(COCc2ccc(OC(F)(F)F)cc2)c1-c1ccccc1` , thanks.
*A* 5.57

*Q* Please give the measured pIC50 for this compound: `Cc1c(O)c(O)c(C=O)c(COCc2ccccc2)c1-c1ccc(Cl)cc1`
*A* 5.31

*Q* Bench note: what pIC50 did `Cc1c(O)c(O)c(C=O)c(COCc2cccc(F)c2)c1-c1cccc(F)c1` show?
*A* 5.54

*Q* Given the entry `Cc1c(O)c(O)c(C=O)c(COCc2ccccc2F)c1-c1ccc(C(F)(F)F)cc1` , report its measured pIC50.
*A* 5.60

*Q* If you can, please state the reported pIC50 value of `Cc1c(O)c(O)c(C=O)c(COCc2ccccc2)c1-c1cc(C(F)(F)F)cc(C(F)(F)F)c1` .
*A* 5.36

*Q* What pIC50 value was documented for this compound, `Cc1c(O)c(O)c(C=O)c(COCc2ccccc2)c1-c1ccc([N+](=O)[O-])cc1` ?
*A* 5.43

*Q* Look up pIC50: `Cc1c(O)c(O)c(C=O)c(COCc2ccc(F)cc2)c1-c1ccccc1`
*A* 5.62

*Q* Bench note: what pIC50 did `Cc1c(O)c(O)c(C=O)c(COCc2ccccc2)c1-c1ccc(F)c(F)c1` show?
*A* 5.69
